- System: Staphylococcus aureus
- protocol summary: Antibacterial activity against penicillin-susceptible Staphylococcus aureus ATCC 25923 after 24 hrs by broth microdilution method
- Assay type: functional
- details: ATCC 25923, 24 h
Listing of entries alongside the reported MIC.
reported property: MIC

                  compound_structure_string  reported_property         val
0  COc1ccc(-c2cc(OC)c3c(c2)c2ccccc2c[n+]3C)cc1.[Cl-]                MIC    16 µg/mL
1  COc1cc(-c2ccccc2C(F)(F)F)cc2c3ccccc3c[n+](C)c12.[Cl-]                MIC     8 µg/mL
2  Cc1cc(-c2ccccc2C(F)(F)F)cc2c3ccccc3c[n+](C)c12.[Cl-]                MIC   0.5 µg/mL
3  COc1cc(/C=C/C(=O)CC(=O)/C=C/c2ccc(O)c(OC)c2)ccc1O                MIC    32 µg/mL
4  COc1cc(-c2ccc(C)cc2)cc2c3ccccc3c[n+](C)c12.[Cl-]                MIC     4 µg/mL
5  COc1cc(-c2ccc(-c3ccccc3)cc2)cc2c3ccccc3c[n+](C)c12.[Cl-]                MIC     1 µg/mL
6  C[n+]1cc2ccccc2c2cc(-c3ccc(C(F)(F)F)cc3)ccc21.[Cl-]                MIC     8 µg/mL
7  Cc1cc(-c2ccc(-c3ccccc3)cc2)cc2c3ccccc3c[n+](C)c12.[Cl-]                MIC  0.06 µg/mL
8  Cc1cc(-c2ccccc2)cc2c3ccccc3c[n+](C)c12.[Cl-]                MIC     1 µg/mL
9  Cc1ccc(-c2cc(C)c3c(c2)c2ccccc2c[n+]3C)cc1.[Cl-]                MIC   0.5 µg/mL

* * *

- Test system: Streptococcus pyogenes
- protocol summary: Antibacterial activity against penicillin-susceptible Streptococcus pyogenes after 24 hrs by broth microdilution method
- Assay type: functional
reported property: MIC (µg/mL)

In [3]: df
Out[3]:
                                   compound             measured_on  unit_annotation  val
0  C[n+]1cc2ccccc2c2cc(-c3ccc(-c4ccccc4)cc3)ccc21.[Cl-]  Streptococcus pyogenes            µg/mL    2
1  COc1cc(-c2ccc(OC(F)(F)F)cc2)cc2c3ccccc3c[n+](C)c12.[Cl-]  Streptococcus pyogenes            µg/mL    2
2  Cc1ccc(-c2ccc3c(c2)c2ccccc2c[n+]3C)cc1.[Cl-]  Streptococcus pyogenes            µg/mL    4
3  COc1cc(-c2ccccc2)cc2c3ccccc3c[n+](C)c12.[Cl-]  Streptococcus pyogenes            µg/mL    2
4  Cc1cc(-c2ccc(C(F)(F)F)cc2)cc2c3ccccc3c[n+](C)c12.[Cl-]  Streptococcus pyogenes            µg/mL    1
5  COc1cc(-c2cccc(C(F)(F)F)c2)cc2c3ccccc3c[n+](C)c12.[Cl-]  Streptococcus pyogenes            µg/mL    4
6  Cc1cc(-c2ccccc2C(F)(F)F)cc2c3ccccc3c[n+](C)c12.[Cl-]  Streptococcus pyogenes            µg/mL    2
7  C[n+]1cc2c3c(ccc2c2ccc4cc5c(cc4c21)OCO5)OCO3.[Cl-] [SANGUINARIUM CHLORIDE]  Streptococcus pyogenes            µg/mL    4
8  Cc1cc(-c2ccccc2)cc2c3ccccc3c[n+](C)c12.[Cl-]  Streptococcus pyogenes            µg/mL    2
9  COc1ccc(-c2cc(C)c3c(c2)c2ccccc2c[n+]3C)cc1.[Cl-]  Streptococcus pyogenes            µg/mL    8

* * *

- Test system: Streptococcus pyogenes
- protocol summary: Antibacterial activity against penicillin-susceptible Streptococcus pyogenes after 24 hrs by broth microdilution method
- Assay type: functional
Listing of entries alongside the reported MIC.
reported property: MIC (µg/mL)

In [3]: df
Out[3]:
                  compound_structure_string  val
0  Cc1cc(-c2cccc(C(F)(F)F)c2)cc2c3ccccc3c[n+](C)c12.[Cl-]    1
1  Cc1cc(-c2ccc(-c3ccccc3)cc2)cc2c3ccccc3c[n+](C)c12.[Cl-]    1
2  Cc1ccc(-c2cc(C)c3c(c2)c2ccccc2c[n+]3C)cc1.[Cl-]    4
3  COc1ccc(-c2cc(OC)c3c(c2)c2ccccc2c[n+]3C)cc1.[Cl-]    4
4  Cc1cc(-c2ccc(OC(F)(F)F)cc2)cc2c3ccccc3c[n+](C)c12.[Cl-]    2
5  COc1cc(-c2ccc(C(F)(F)F)cc2)cc2c3ccccc3c[n+](C)c12.[Cl-]  0.5
6  COc1cc(-c2ccccc2C(F)(F)F)cc2c3ccccc3c[n+](C)c12.[Cl-]   16
7  O=C(O)c1cn(C2CC2)c2cc(N3CCNCC3)c(F)cc2c1=O    8
8  COc1cc(-c2ccc(C)cc2)cc2c3ccccc3c[n+](C)c12.[Cl-]    2
9  C[n+]1cc2ccccc2c2cc(-c3ccccc3)ccc21.[Cl-]    4

* * *

- Tested on: Staphylococcus aureus
- protocol summary: Antibacterial activity against methicillin-resistant Staphylococcus aureus ATCC 43300 after 24 hrs by broth microdilution method
- Format: functional
- details: ATCC 43300, 24 h
Listing of entries alongside the reported MIC.
reported property: MIC (µg/mL)

>>> df
                                   compound  reported_property  val
0  C[n+]1cc2ccccc2c2cc(-c3ccc(OC(F)(F)F)cc3)ccc21.[Cl-]                MIC   64
1  C[n+]1cc2c3c(ccc2c2ccc4cc5c(cc4c21)OCO5)OCO3.[Cl-] [SANGUINARIUM CHLORIDE]                MIC    8
2  C[n+]1cc2ccccc2c2cc(-c3ccccc3C(F)(F)F)ccc21.[Cl-]                MIC   32
3  COc1cc(-c2ccccc2C(F)(F)F)cc2c3ccccc3c[n+](C)c12.[Cl-]                MIC   16
4  Cc1cc(-c2ccc(-c3ccccc3)cc2)cc2c3ccccc3c[n+](C)c12.[Cl-]                MIC  0.5
5  COc1cc(-c2ccc(C)cc2)cc2c3ccccc3c[n+](C)c12.[Cl-]                MIC    4
6  Cc1cc(-c2cccc(C(F)(F)F)c2)cc2c3ccccc3c[n+](C)c12.[Cl-]                MIC    1

* * *

- Test system: Staphylococcus epidermidis
- protocol summary: Antibacterial activity against penicillin-resistant Staphylococcus epidermidis clinical isolate after 24 hrs by broth microdilution method
- Assay type: functional
Listing of entries alongside the reported log10 MIC.
reported property: log10 MIC (log10 of the value in µg/mL)

                                    compound  reported_property    val
 0  COc1ccc(-c2ccc3c(c2)c2ccccc2c[n+]3C)cc1.[Cl-]          log10 MIC   1.81
 1  COc1cc(-c2ccccc2)cc2c3ccccc3c[n+](C)c12.[Cl-]          log10 MIC   0.60
 2  COc1cc(-c2ccc(C(F)(F)F)cc2)cc2c3ccccc3c[n+](C)c12.[Cl-]          log10 MIC   0.90
 3  C[n+]1cc2ccccc2c2cc(-c3cccc(C(F)(F)F)c3)ccc21.[Cl-]          log10 MIC   0.90
 4  COc1cc(-c2cccc(C(F)(F)F)c2)cc2c3ccccc3c[n+](C)c12.[Cl-]          log10 MIC   0.60
 5  C[n+]1cc2ccccc2c2cc(-c3ccccc3)ccc21.[Cl-]          log10 MIC   1.20
 6  Cc1ccc(-c2cc(C)c3c(c2)c2ccccc2c[n+]3C)cc1.[Cl-]          log10 MIC   0.30
 7  COc1cc(-c2ccc(OC(F)(F)F)cc2)cc2c3ccccc3c[n+](C)c12.[Cl-]          log10 MIC   1.20
 8  Cc1cc(-c2ccc(-c3ccccc3)cc2)cc2c3ccccc3c[n+](C)c12.[Cl-]          log10 MIC  -0.90
 9  C[n+]1cc2ccccc2c2cc(-c3ccccc3C(F)(F)F)ccc21.[Cl-]          log10 MIC   1.51
10  Cc1cc(-c2cccc(C(F)(F)F)c2)cc2c3ccccc3c[n+](C)c12.[Cl-]          log10 MIC  -0.60
11  Cc1cc(-c2ccc(C(F)(F)F)cc2)cc2c3ccccc3c[n+](C)c12.[Cl-]          log10 MIC  -0.90
12  COc1cc(-c2ccc(-c3ccccc3)cc2)cc2c3ccccc3c[n+](C)c12.[Cl-]          log10 MIC   0.90
13  Cc1cc(-c2ccccc2)cc2c3ccccc3c[n+](C)c12.[Cl-]          log10 MIC   0.60
14  Cc1cc(-c2ccc(OC(F)(F)F)cc2)cc2c3ccccc3c[n+](C)c12.[Cl-]          log10 MIC  -0.60
15  C[n+]1cc2c3c(ccc2c2ccc4cc5c(cc4c21)OCO5)OCO3.[Cl-] [SANGUINARIUM CHLORIDE]          log10 MIC   0.90
16  COc1ccc(-c2cc(C)c3c(c2)c2ccccc2c[n+]3C)cc1.[Cl-]          log10 MIC   0.30
17  Cc1ccc(-c2ccc3c(c2)c2ccccc2c[n+]3C)cc1.[Cl-]          log10 MIC   1.51
18  C[n+]1cc2ccccc2c2cc(-c3ccc(OC(F)(F)F)cc3)ccc21.[Cl-]          log10 MIC   1.20
